test_system: T1, human BTLA (human, UniProt Q7Z6A9 31-289)
T1 construct: also called hBTLA; HEK293.hBTLA
T1 sequence: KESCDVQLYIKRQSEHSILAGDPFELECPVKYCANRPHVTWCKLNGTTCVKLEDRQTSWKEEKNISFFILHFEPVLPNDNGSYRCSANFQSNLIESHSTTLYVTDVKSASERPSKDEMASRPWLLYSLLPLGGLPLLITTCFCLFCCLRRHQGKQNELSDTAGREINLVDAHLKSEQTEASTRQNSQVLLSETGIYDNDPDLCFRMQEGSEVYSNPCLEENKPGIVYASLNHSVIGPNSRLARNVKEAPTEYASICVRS
test_details: flow cytometry, HEK293 cells overexpressing human BTLA
observable: binding result

HFB6-4hz9-hG1 (antibody, human IgG1, V domains shown, Humanized variant of HFB6-4, human IgG1 (hG1)) VH: EVQLVESGGGLVQPGRSLRLSCTTSGFNIKDTYIHWFRQAPGKGLEWVGRNDPANGNTKYTASFKGRATISADGSKSIAYLQMNSLKTEDTAVYYCASYEGYYERFGYWGQGTLVTVSS VL: DVVMTQSPLSLPVTLGQPASISCRSSQSLLDRDGKTYLNWLQQRPGQSPRRLIYLVSKRDSGVPDRFSGSGSGTDFTLKISRVEAEDVGVYYCWQDTHFPYTFGQGTKLEIK: binds
HFB6-5hz19-hG1 (antibody, human IgG1, V domains shown, Humanized variant of HFB6-5, human IgG1 (hG1)) VH: QVQLVQSGAEVKKPGSSVKVSCKASGVNIKDTYMYWVRQAPGQGLEWIGRIDPANGYARYAQKFQGRATITADESTSTAYMELSSLRSEDTAVYYCAVYDGYYESFDVWGQGTLVTVSS VL: DIVMTQSPDSLAVSLGERATINCKSSQSLLDSDGKTYLNWLQQKPGQSPKRLIYLVSKLDSGVPDRFSGSGSGTDFTLTISSVQAEDLAVYYCWQGTLFPRTFGQGTKLEIK: binds
HFB6-5hz13-hG1 (antibody, human IgG1, V domains shown, Humanized variant of HFB6-5, human IgG1 (hG1)) VH: QVQLVQSGAEVKKPGSSVKVSCKASGVNIKDTYMYWVRQAPGQGLEWIGRIDPANGYARYAQKFQGRATITADESTSTAYMELSSLRSEDTAVYYCAVYDGYYESFDVWGQGTLVTVSS VL: EIVLTQSPGTLSVSPGERATISCRSSQSLLDSDGKTYLNWLQQKPGQAPRRLIYLVSKRDTGVPDRFSGSGSGTDFTLTISRVEPEDFAVYYCWQGTLFPRTFGQGTKLEIK: binds
